# system-tested: human κ-OR (Homo sapiens)
# Construct: membranes
# Sequence (P41145 whole entry): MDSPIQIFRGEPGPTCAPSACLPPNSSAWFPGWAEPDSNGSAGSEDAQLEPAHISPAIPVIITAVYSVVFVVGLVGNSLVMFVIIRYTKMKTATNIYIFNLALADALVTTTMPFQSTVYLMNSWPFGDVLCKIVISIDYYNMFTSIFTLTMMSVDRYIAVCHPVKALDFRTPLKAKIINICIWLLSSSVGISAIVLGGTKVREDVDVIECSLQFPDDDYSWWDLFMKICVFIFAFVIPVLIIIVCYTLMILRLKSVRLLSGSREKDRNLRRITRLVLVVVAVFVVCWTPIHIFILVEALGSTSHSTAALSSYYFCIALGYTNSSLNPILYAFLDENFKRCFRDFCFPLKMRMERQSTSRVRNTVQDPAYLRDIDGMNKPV
# assay-name: biochemical
pEC50: −log10 of the molar value.

# compound, pEC50
data = [
    ("COC(=O)C1CC(OC(C)=O)C(=O)C2C1(C)CCC1C(=O)OC(c3ccoc3CO)CC12C (stereo not shown)", 6.46),
]

----------
# system-tested: mouse δ opioid receptor (Mus musculus, UniProt P32300)
# Sequence (P32300 whole entry): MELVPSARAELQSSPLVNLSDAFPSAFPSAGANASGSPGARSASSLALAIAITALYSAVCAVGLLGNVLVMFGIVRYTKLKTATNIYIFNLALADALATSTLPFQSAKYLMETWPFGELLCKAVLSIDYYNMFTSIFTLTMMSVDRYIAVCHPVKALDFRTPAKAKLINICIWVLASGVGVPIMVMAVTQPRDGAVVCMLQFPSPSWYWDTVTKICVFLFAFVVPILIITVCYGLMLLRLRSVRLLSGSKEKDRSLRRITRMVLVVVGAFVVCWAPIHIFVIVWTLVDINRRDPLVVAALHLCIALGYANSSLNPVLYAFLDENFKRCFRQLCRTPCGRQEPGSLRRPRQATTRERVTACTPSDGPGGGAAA
readout: Ki

# compound, assay-result
rows = [
    ("COC(=O)C1CC(OCOCCO)C(=O)C2C1(C)CCC1C(=O)OC(c3ccoc3)CC12C (stereo not shown)", "> 1000 nM"),
]

----------
# Tested on: κ-OR (CHO-hκ-OR)
# Construct: expressed in transfected cells; host or cells: CHO cells, stably transfected; membranes
# assay-name: Antagonism of dynorphin A (10 nM) at κ-OR in the [35S]GTPγS assay
# Type: biochemical, human
# assay-context: antagonist 3 μM, without antagonist mean 213
readout: [35S]GTPγS binding (% increase over basal), Mean

# compound, assay-result
rows = [
    ("COC(=O)C1CC(OC(C)=O)C(=O)C2C1(C)CCC1C(=O)OC(c3coc(CN(C)C)c3)CC12C (centres unmarked)", 208),
    ("CC(C)[C@@H](CN1CC[C@@](C)(c2cccc(O)c2)[C@@H](C)C1)NC(=O)[C@H]1Cc2ccc(O)cc2CN1 [JDTic, reference compound]", 0),
    ("COC(=O)C1CC(OC(C)=O)C(=O)C2C1(C)CCC1C(=O)OC(c3cc(CO)oc3CO)CC12C (centres unmarked)", 226),
    ("COC(=O)C1CC(OC(C)=O)C(=O)C2C1(C)CCC1C(=O)OC(c3ccoc3CO)CC12C (centres unmarked)", 332),
    ("COC(=O)C1CC(OC(C)=O)C(=O)C2C1(C)CCC1C(=O)OC(c3ccoc3CN(C)C)CC12C (centres unmarked)", 251),
]

The reported numbers originate from paper PMC3896271.
